- Test system: HS 578T breast
- assay.protocol: NCI tumour cell line growth inhibition, 48 h
property.name: TGI (µM)
Numbers only here, please. The scale is µM.

Would you please look over these solved cases?
compound	target.or.system	TGI (µM)
C[C@@H](N)COc1ccc(-c2cnc3ccc(N[C@H](C)c4cccc(F)c4)nn23)cc1	HS 578T breast	3.82
CC(c1cc(Cl)ccc1O)c1cc(Cl)ccc1O	HS 578T breast	7.19

stdin: Please report the recorded TGI for "CCCCCCCCCCCCCC[n+]1ccccc1" .
stdout: 5.13

stdin: Quick one: TGI of "CCOC(=O)c1[nH]cc(C)c1-c1cccn1-c1ccc(Cl)cc1[N+](=O)[O-]" ?
stdout: 51.2

* * *

- Tested on: SF-539 CNS
- assay.protocol: NCI tumour cell line growth inhibition, 48 h; in the data active = GI50 below about 0.43 µM; inactive = the rest
Write down the outcome that applies. Available outcomes: active, inactive

> print(dat)
                                   compound  assigned.label
1  CCn1c(-c2nonc2N)nc2c(C#CC(C)(C)O)ncc(OC3CCNCC3)c21        inactive

stdin: Name the outcome recorded for "CCCCCCCCCCCCCC[n+]1ccccc1" in the assay.
stdout: inactive

stdin: In this assay, the call recorded for "OCc1ccc(-c2csc(-c3ccc(CO)o3)c2)o1" was what?
stdout: inactive

stdin: Which outcome was assigned to "O=C(CCCn1c2c(sc3ccccc32)c(=O)n2nnc(-c3ccccc3)c12)NCCc1cnc[nH]1" in this test?
stdout: active

* * *

Listed here: items and their measured TGI.
- Tested on: T-47D breast
- assay.protocol: NCI tumour cell line growth inhibition, 48 h

stdin: Item CC(=O)OCC1OC(N2C(=O)NC(=O)C3C=C4CCCCC4=CC32)CC1OC(C)=O (stereo not drawn) has what recorded TGI?
stdout: > 100 µM

stdin: Which value of TGI has been reported for "COc1ccccc1NC(=S)N=Nc1c(O)[nH]c2ccccc12" in the records?
stdout: > 100 µM

stdin: May I ask what TGI has been recorded for "C/C(=N\Nc1nc2cc(Cl)ccc2s1)c1ccccn1" ?
stdout: 43.6 µM

stdin: Query (compound): "Clc1ccc(CCNC2(c3cc4ccccc4s3)CCCCC2)cc1Cl" ; field requested: TGI
stdout: 46 µM

stdin: What value of TGI has been recorded for this entry: "CCOC(=O)/C=C/C(=O)O/C=C/[N+](=O)[O-]"
stdout: > 100 µM

* * *

- Test system: K-562 leukemia
- assay.protocol: NCI tumour cell line growth inhibition, 48 h
property.name: TGI

Recorded results for 6 molecules are shown here.
> print(dat)
                                   molecule  target.or.system  observed.value
1  COC1OCC(O)C(NC(=O)N(C)N=O)C1O (stereo unspecified)    K-562 leukemia        > 100 µM
2  CCCCCCC1N=C(N)N=C(N)N1c1cccc(Cl)c1 (stereo unspecified)    K-562 leukemia         24.6 µM
3  COc1ccc2c(c1)[n+]([O-])c(-c1cccc(Cl)c1)c(N)[n+]2[O-]    K-562 leukemia        > 100 µM
4  CC1CCC2C(C)C(=O)OC3OC4(C)CCC1C32OO4 (stereo unspecified)    K-562 leukemia        > 100 µM
5  N#CC1C[C@@H]2CC3(CCC2CN1C(=O)c1ccccc1)OCCO3 (stereo partly specified)    K-562 leukemia        > 100 µM
6  COc1ccc2nc3c([N+](=O)[O-])ccc(NCCN(C)C)c3c(N)c2c1    K-562 leukemia        0.607 µM

stdin: Look up TGI for this molecule: "CCOC(=O)c1nc2ccc(OC)cc2c2c1Cc1ccccc1-2"
stdout: > 100 µM

stdin: May I ask what TGI has been recorded for Cc1c(Cc2ccccc2)n(C(C)OCCN(OC(=O)Oc2ccccc2)C(=O)Oc2ccccc2)c(=O)[nH]c1=O (stereo unspecified) ?
stdout: 93.5 µM

stdin: Request the reported TGI associated with "N[C@H]1c2c(Br)sc(Br)c2C(=O)[C@H]1O"
stdout: 15.2 µM

stdin: Return reported TGI; argument: "Cc1c(C(=O)O)n2c(=S)[nH]nc2c2ccccc12"
stdout: > 100 µM

stdin: Any idea what its TGI is? The molecule is "Cc1ccc(C)c2c1C(=O)N(c1ccc(F)cc1F)C2=O"
stdout: > 100 µM

* * *

- System: KM12 colon
- assay.protocol: NCI tumour cell line growth inhibition, 48 h
Listed below: TGI values for each entry.
Number in µM, nothing else.

stdin: I have this compound here, COc1ccc2c(c1)Oc1cc(O)ccc1[C@H]2c1ccccc1C(=O)NC(C)c1ccccc1 (stereo not given in full) , and I need its recorded TGI.
stdout: 36.5

stdin: Which value of TGI has been reported for "C/C(=N\NC(=S)N1CCN(c2ccccn2)CC1)c1ccccn1" in the records?
stdout: 14.1

* * *

- Tested on: MDA-N
- assay.protocol: NCI tumour cell line growth inhibition, 48 h
property.name: TGI

Example compounds with recorded TGI:
> print(dat)
                                   compound  observed.value
1  CC(=O)OCC1OC(N2C(=O)NC(=O)C3C=C4CCCCC4=CC32)CC1OC(C)=O (stereo not drawn)        > 100 µM
2  CCC(=O)Nc1cccc(N=Cc2ccc(OC(=O)/C=C\c3ccccc3)cc2)c1         > 75 µM
3                   O=Cc1cccc2ccc3ccccc3c12         73.2 µM
4  COC1/C=C/C=C(/C)Cc2cc(O)c(Cl)c(c2)N(C)C(=O)CC(OC(=O)C(C)C)C2(C)OC2C(C)C2CC1(O)NC(=O)O2 (stereo not drawn)       < 0.01 µM
5           O=c1[nH]c2ccccc2c(O)c1Cc1ccccc1        > 100 µM
6  Nn1c(Nc2ccc(S(N)(=O)=O)cc2)nnc(/C=C/c2c(O)ccc3ccccc23)c1=O           42 µM
7  Cc1cc2nc3c(C#N)c4c(c(Nc5ccc(F)cc5)n3c2cc1C)CCC4        > 100 µM
8  C/C=C1/CN2CCC34c5ccccc5N(C)C23C2CC1C4(C(=O)OC)C(OC(C)=O)O2 (stereo not drawn)        > 100 µM

stdin: What value of measured TGI is listed for CC(C)=CC1C(C(=O)Oc2ccccc2C(C)C)C1(C)C (stereo not drawn) ?
stdout: 90 µM

stdin: What TGI value was documented for this compound, "Cn1cnc(N2CCCC2)c(C#N)c1=S" ?
stdout: > 100 µM

stdin: Requested field: TGI. Item: "O=C1c2ccccc2C(=O)N1n1c(Cc2ccc(Cl)cc2)n[nH]c1=O"
stdout: > 100 µM

stdin: Endpoint output: TGI of "CCOC(=O)/C=C(/C(=O)OCC)n1cc(C)c(=O)n(Cc2cnnn2COCCOC(C)=O)c1=O" . Value?
stdout: 48.5 µM

stdin: Record request: TGI value, item "CCN1c2ccccc2NC(=S)c2c1n[nH]c2-c1ccccc1"
stdout: 32.6 µM

stdin: What TGI value was documented for this compound, "Cc1cc(Cl)nc2ccc(Cc3ccc4nc(Cl)cc(C)c4c3)cc12" ?
stdout: > 100 µM

stdin: Report TGI for CCOP(=O)(CCCC(O)CNc1nc(N)nc(Cl)c1N=Nc1ccc(Cl)cc1)OCC (stereo not drawn) please.
stdout: 18.8 µM

stdin: So what's the measured TGI for this one? "Cc1c(C(=O)O)n2c(=S)[nH]nc2c2ccccc12"
stdout: > 100 µM

stdin: Can you share its TGI? I mean this compound: COc1ccc2c(c1)CC[C@@H]1C2CC[C@]2(C)C(=O)N(CCN(C)C)C(=O)CC12 (stereo partly drawn)
stdout: > 100 µM

stdin: Record request: TGI value, item "COc1ccc(-c2coc3cc(O)ccc3c2=O)cc1"
stdout: > 100 µM

* * *

- Tested on: HOP-62 NSCLC
- assay.protocol: NCI tumour cell line growth inhibition, 48 h
TGI listing for selected compounds.

> print(dat)
                                   compound  observed.value
1  N#CC1C[C@@H]2CC3(CCC2CN1C(=O)c1ccccc1)OCCO3 (stereo partly specified)        > 100 µM

stdin: What value of TGI has been recorded for this entry: "Clc1ccc(CCNC2(c3cc4ccccc4s3)CCCCC2)cc1Cl"
stdout: 84.3 µM

stdin: For the compound shown here, "C/C(=N\Nc1nc2cc(Cl)ccc2s1)c1ccccn1" , give the reported TGI.
stdout: 11.1 µM

stdin: Which TGI reading was recorded for the compound CC(=O)OCC12CN(C#N)C3C4COC(CC41)C1(C(=O)N(C)c4ccccc41)C32 (stereo unspecified) ?
stdout: 58.6 µM

stdin: Which TGI value is on record for "Cc1ccc([Se](=C(C(=O)c2ccccc2)C(=O)c2ccccc2)c2ccc(C)cc2)cc1" ?
stdout: > 100 µM

stdin: Suppose we examine the compound "COc1cc(OC)cc(Oc2cnc3cc(N)cc(N)c3n2)c1" ; what TGI value has been reported?
stdout: 36.6 µM

stdin: What value of TGI has been reported for the following compound? COc1ccc2c(c1)Oc1cc(O)ccc1[C@H]2c1ccccc1C(=O)NC(C)c1ccccc1 (stereo partly specified)
stdout: 44.6 µM

stdin: Please report the recorded TGI for COc1cccc2c1C(=O)c1c(O)c3c(c(O)c1C2=O)C[C@@](O)(C(C)=O)CC3S(=O)(=O)O (stereo partly specified) .
stdout: > 100 µM

stdin: Look up TGI: "c1ccc2c(c1)SC(=C1Sc3ccccc3S1)S2"
stdout: > 100 µM

stdin: Look up TGI for this compound: "CCOC(=O)c1[nH]cc(C)c1-c1cccn1-c1ccc(Cl)cc1[N+](=O)[O-]"
stdout: 44.9 µM

stdin: Value lookup for TGI; key = "COC(=O)c1c(O)ccc2c1c1cc3ccccc3cc1n2Cc1cc(OC)cc(OC)c1"
stdout: > 100 µM

stdin: Look up TGI: "O=[N+]([O-])c1ccc(/C=C/c2nc3ccc(Cl)cc3[nH]2)cc1"
stdout: > 100 µM

stdin: // TGI lookup, key: COc1ccc2c(c1)N(Cc1ccc(Cl)cc1)CCC2N1CCCC1=O (stereo unspecified)
stdout: 42.7 µM

stdin: What value of TGI has been reported for the following compound? "O[C@@H]1C[C@H](Cl)c2c(Cl)sc(Cl)c21"
stdout: > 100 µM
